Hello, the source for this data is ChEMBL document CHEMBL5365500, in case you need it.

Tested on: Staphylococcus aureus
Assay: Antimicrobial activity against Staphylococcus aureus ATCC 25923 assessed as inhibition of visible growth measured after 20 to 24 hrs incubation by CLSI method
Type: functional
Settings: time 20-24 hrs
quantityKind: MIC
Be sure to follow the number with its unit.

Below, each entry is followed by its recorded MIC result.
INSERT INTO assay_data (smilesentry, result) VALUES
  ('O=C(O)c1ccc(-n2cc(CNc3ccc(Br)cc3)c(-c3ccc(F)cc3)n2)cc1', '8 µg/mL'),
  ('O=C(O)c1ccc(-n2cc(CNc3ccc(Cl)c(Cl)c3)c(-c3cccc(F)c3)n2)cc1', '2 µg/mL'),
  ('O=C(O)c1ccc(-n2cc(CNc3ccc(Cl)c(Cl)c3)c(-c3ccc(F)c(F)c3)n2)cc1', '1 µg/mL');

Can you give me MIC for all of these, one by one?
1. O=C(O)c1ccc(-n2cc(CNc3cccc(Cl)c3)c(-c3ccc(F)cc3)n2)cc1
2. O=C(O)c1ccc(-n2cc(CNc3cccc(Br)c3)c(-c3cccc(F)c3)n2)cc1

1. 8 µg/mL
2. 4 µg/mL
